MEASUREMENT NOTES: Survival percent of stationary-phase HA-1 cells treated with enhancer 30 minutes before X-ray irradiation
Format: cell-based, Chinese hamster
CONDITION PARAMETERS: ha-1 cells, 800 μg/ml, no irradiation; control 90; read-out: Plating efficiency of the group not irradiated with X-Rays
Experimental: (2) HA-1 cells under stationary phase prepared similarly as in (1), were irradiated with various doses (200 to 800 R) of X-rays for examination of effects of the enhancer on plating efficiencies of the cells. The treatment with the enhancer was conducted 30 minutes before irradiation. Measurement of plating efficiencies was carried out for the cells immediately after irradiation with X-rays.
OBSERVABLE: viability (%)
Value expressed in %; do not type the unit.

Entry `O=c1ccn([C@@H]2O[C@H](CO)C[C@H]2O)c(=O)[nH]1` , viability reported as 80

---

MEASUREMENT NOTES: Survival percent of stationary-phase HA-1 cells treated with enhancer 30 minutes before X-ray irradiation
Type: cell-based, Chinese hamster
CONDITION PARAMETERS: ha-1 cells, 200 μg/ml, no irradiation; control 90; read-out: Plating efficiency of the group not irradiated with X-Rays
OBSERVABLE: viability (%)
Value expressed in %; do not type the unit.

Entry `O=c1ccn([C@@H]2O[C@H](CO)C[C@H]2O)c(=O)[nH]1` , viability reported as 87

---

MEASUREMENT NOTES: Plating efficiency of stationary-phase HA-1 cells given enhancer immediately after 1,000 R X-ray (inhibition of PLDR)
Assay type: cell-based, Chinese hamster
CONDITION PARAMETERS: chinese hamster, ha-1 cells, 3'-dGuo 20 μg/ml, no irradiation; control 51; read-out: Plating efficiency, treated only with enhancer (after 7 hours)
OBSERVABLE: viability at 7 h (%)
Value expressed in %; do not type the unit.

Entry `Nc1nc2c(ncn2[C@@H]2O[C@H](CO)C[C@H]2O)c(=O)[nH]1` , viability at 7 h reported as 47

---

MEASUREMENT NOTES: Plating efficiency of stationary-phase HA-1 cells given enhancer immediately after 1,000 R X-ray (inhibition of PLDR)
Format: cell-based, Chinese hamster
CONDITION PARAMETERS: chinese hamster, ha-1 cells, 3'-dUrd 150 μg/ml, no irradiation; control 66; read-out: Plating efficiency, treated only with enhancer (after 9 hours)
OBSERVABLE: viability at 9 h (%)
Value expressed in %; do not type the unit.

Entry `O=c1ccn([C@@H]2O[C@H](CO)C[C@H]2O)c(=O)[nH]1` , viability at 9 h reported as 65

---

MEASUREMENT NOTES: Acute toxicity test
CONDITION PARAMETERS: mouse, in vivo, ip, ICR mice, male, one week; estimated
OBSERVABLE: LD50 at 168 h

Entry `Nc1nc2c(ncn2[C@@H]2O[C@H](CO)C[C@H]2O)c(=O)[nH]1` , LD50 at 168 h reported as > 1000 mg/kg

---

MEASUREMENT NOTES: LD50 (i.p.) of 3'-dAdo
CONDITION PARAMETERS: in vivo, ip
OBSERVABLE: LD50

Entry Nc1ncnc2c1ncn2[C@@H]1O[C@H](CO)C[C@H]1O [3'-dAdo, 3'-deoxyadenosine, reference compound] , LD50 reported as 280 mg/kg

---

MEASUREMENT NOTES: Plating efficiency of stationary-phase HA-1 cells given enhancer immediately after 1,000 R X-ray (inhibition of PLDR)
Assay type: cell-based, Chinese hamster
CONDITION PARAMETERS: chinese hamster, ha-1 cells, 3'-dGuo 40 μg/ml, no irradiation; control 51; read-out: Plating efficiency, treated only with enhancer (after 7 hours)
OBSERVABLE: viability at 7 h (%)
Value expressed in %; do not type the unit.

Entry `Nc1nc2c(ncn2[C@@H]2O[C@H](CO)C[C@H]2O)c(=O)[nH]1` , viability at 7 h reported as 45

---

MEASUREMENT NOTES: Plating efficiency of stationary-phase HA-1 cells given enhancer immediately after 1,000 R X-ray (inhibition of PLDR)
Type: cell-based, Chinese hamster
CONDITION PARAMETERS: chinese hamster, ha-1 cells, 3'-dUrd 300 μg/ml, no irradiation; control 66; read-out: Plating efficiency, treated only with enhancer (after 9 hours)
OBSERVABLE: viability at 9 h

Entry `O=c1ccn([C@@H]2O[C@H](CO)C[C@H]2O)c(=O)[nH]1` , viability at 9 h reported as 60%

The measurements presented in this section are drawn from patent US4434788A.
